Molecular target: human BACE1 (Homo sapiens, UniProt P56817)
Sequence (P56817 46-501): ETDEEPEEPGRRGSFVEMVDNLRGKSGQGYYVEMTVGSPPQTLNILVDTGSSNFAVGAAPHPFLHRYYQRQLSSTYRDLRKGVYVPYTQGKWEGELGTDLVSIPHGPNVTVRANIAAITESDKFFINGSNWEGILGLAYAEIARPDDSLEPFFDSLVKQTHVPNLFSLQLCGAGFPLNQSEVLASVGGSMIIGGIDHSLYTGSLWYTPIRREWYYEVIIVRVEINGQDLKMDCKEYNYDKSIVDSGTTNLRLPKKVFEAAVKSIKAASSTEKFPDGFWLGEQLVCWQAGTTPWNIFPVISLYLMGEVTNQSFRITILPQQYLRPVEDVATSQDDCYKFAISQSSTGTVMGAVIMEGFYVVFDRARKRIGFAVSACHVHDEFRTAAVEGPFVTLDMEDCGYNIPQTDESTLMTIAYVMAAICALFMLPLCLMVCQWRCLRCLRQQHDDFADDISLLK
Test: Fluorescent kinetic assay, inhibition of BACE1 (WABC-6 peptide substrate);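 note: fluorescence monitored at 320 nm excitation and 420 nm emission every 40 s over 30 min, with the substrate cleavage rate taken from the linear slope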
Type: biochemical
Settings: 10 nM enzyme, 25 μM substrate WABC-6, pH 4.5, room temperature; read-out: IC50 (μM) BACE1
assay.endpoint: IC50

[[record]]
molecule = "COc1ncccc1-c1cccc(C2(c3ccc(OC(F)(F)F)cc3)N=C(N)N(C)C2=O)c1 (stereo not shown)"
assay_endpoint = "IC50"
val = "0.11 to 1 µM"


# input Which IC50 reading was recorded for the molecule CN1C(=O)[C@](c2ccc(OCCF)cc2)(c2ccc(F)c(-c3cncnc3)c2)N=C1N [Example 139A] ?
# output 0.01 to 0.1 µM

# input Which IC50 reading was recorded for the molecule CN1C(=O)C(c2ccc(OCCF)cc2)(c2ccc(F)c(-c3cncnc3)c2)N=C1N (stereo not shown) ?
# output 0.01 to 0.1 µM

# input Which IC50 reading was recorded for the molecule COc1ccc([C@]2(c3ccc(F)c(-c4cncc(F)c4)c3)N=C(N)N(C)C2=O)cc1 [Example 142B] ?
# output 0.01 to 0.1 µM

# input Which IC50 reading was recorded for the molecule CCOC(=O)COc1ccc(C2(c3cccc(-c4cncnc4)c3)N=C(N)N(C)C2=O)cc1C (stereo not shown) ?
# output 0.11 to 1 µM

# input Which IC50 reading was recorded for the molecule CN1C(=O)C(c2ccc(OC(F)(F)F)cc2)(c2ccc(F)c(-c3ccc(F)nc3)c2)N=C1N (stereo not shown) ?
# output 0.11 to 1 µM

# input Which IC50 reading was recorded for the molecule COc1ccc(C2(c3cccc(-c4cccnc4OC)c3)N=C(N)N(C)C2=O)cc1C (stereo not shown) ?
# output 0.11 to 1 µM

These data points were gathered from patent US7700602B2.
